Compiled notes: published pIC50 values involving DYRK1B (Homo sapiens (Human)).
pIC50: −log10 of the molar value.
PROPERTY_NAME: pIC50

c1cncc(-c2cc(-c3cnc4ccccn34)cs2)c1 = 6.22

I. Nc1ncnc2c1c(-c1ccccc1)cn2[C@@H]1S[C@H](CO)[C@@H](O)[C@H]1O
II. c1cncc(-c2csc(-c3cnco3)c2)c1
III. C=Cc1cn([C@@H]2S[C@H](CO)[C@@H](O)[C@H]2O)c2ncnc(N)c12
[Q] Would you mind ranking these compounds by ascending pIC50? Submit the labels in the order that the ranking request calls for.
[A] II, I, III
(II: 6.00, I: 6.54, III: 7.07)

P. NC1=N/C(=C\c2ccc(O)c(O)c2)C(=O)N1
Q. FC(F)(F)c1cncc(-c2csc(-c3cccnc3)c2)c1
R. C#Cc1cn([C@@H]2S[C@H](CO)[C@@H](O)[C@H]2O)c2ncnc(N)c12
[Q] Place the items in sequence of falling pIC50. Submit the labels in the order that the ranking request calls for.
[A] R, P, Q
